System: 22AG (DNA, G4) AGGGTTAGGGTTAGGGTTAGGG
Assay details: fluorimetric titration
Measurement parameters: K+ 95 mM; 20 °C; DNA concentration in oligonucleotide
Catalogue of Kb^22AG values

Smiles str	Kb^22AG
CN1C(=CC=C(C=Cc2ccc3ccccc3[n+]2C)C=Cc2ccc3ccccc3[n+]2C)C(C)(C)c2ccccc21	900000 M⁻¹
CN1C(=CC=C(C=Cc2ccc3ccccc3[n+]2C)C=Cc2ccc3ccccc3[n+]2C)C=Cc2ccccc21	200000 M⁻¹
CN1C=CC(=CC=C(C=Cc2cc[n+](C)c3ccccc23)C=Cc2cc[n+](C)c3ccccc23)c2ccccc21	200000 M⁻¹
CN1C(=CC=C(C=CC2=[N+](C)c3ccccc3C2(C)C)C=CC2=[N+](C)c3ccccc3C2(C)C)C=Cc2ccccc21	390000 M⁻¹

---

System: ILPR-DNA a2 (DNA, G4) ACAGGGGTGTGGGGACAGGGGTGTGGGG
Assay details: fluorimetric titration
Measurement parameters: K+ 95 mM; potassium phosphate buffer, pH 7.0, 20 °C; DNA concentration in nucleotide bases; per base

Smiles str	Kb^a2, M⁻¹
CN1C(=Cc2cc[n+](C)c3ccccc23)Sc2ccccc21	300000
CN1C(=CC=C(C=Cc2sc3ccccc3[n+]2C)C=Cc2sc3ccccc3[n+]2C)Sc2ccccc21	1.2e+06
c1cc[n+]2cc3c(cc2c1)c1cc2cccc[n+]2cc1c1c2c[n+]4ccccc4cc2c2cc4cccc[n+]4cc2c31	3.5e+06
CN1C=CC(=CC=C(C=Cc2cc[n+](C)c3ccccc23)C=Cc2cc[n+](C)c3ccccc23)c2ccccc21	200000
CN1C(=CC=C(C=Cc2ccc3ccccc3[n+]2C)C=Cc2ccc3ccccc3[n+]2C)C=Cc2ccccc21	2.7e+06
C[n+]1cc(NC(=O)c2cccc(C(=O)Nc3cc4ccccc4[n+](C)c3)n2)cc2ccccc21	2.4e+06
COc1cc2cc3c4cc(OC)c(OC)cc4cc[n+]3c(C)c2cc1OC	2.5e+06
C[n+]1ccc(-c2c3nc(c(-c4cc[n+](C)cc4)c4ccc([nH]4)c(-c4cc[n+](C)cc4)c4nc(c(-c5cc[n+](C)cc5)c5ccc2[nH]5)C=C4)C=C3)cc1	2.2e+06

---

System: Fa2T (DNA, G4) ACAGGGGTGTGGGGACAGGGGTGTGGGG
Assay details: FRET melting
Measurement parameters: K+ 10 mM, Li+ 90 mM, Na+ 10 mM; cacodylate buffer, pH 7.2; DNA 0.2 µM; ligand–DNA ratio 5.0
Rule for this label: Met means ΔTm is less than 5 °C; Not met means ΔTm is at least 5 °C.

Smiles str	Target of assay	Answer label
COc1cc2cc3c4cc(OC)c(OC)cc4cc[n+]3c(C)c2cc1OC	Fa2T (DNA, G4) ACAGGGGTGTGGGGACAGGGGTGTGGGG	Met
CN1C=CC(=CC=C(C=Cc2cc[n+](C)c3ccccc23)C=Cc2cc[n+](C)c3ccccc23)c2ccccc21	Fa2T (DNA, G4) ACAGGGGTGTGGGGACAGGGGTGTGGGG	Met
CN1C(=CC=C(C=CC2=[N+](C)c3ccccc3C2(C)C)C=CC2=[N+](C)c3ccccc3C2(C)C)C=Cc2ccccc21	Fa2T (DNA, G4) ACAGGGGTGTGGGGACAGGGGTGTGGGG	Met
CN1C(=CC=C(C=Cc2ccc3ccccc3[n+]2C)C=Cc2ccc3ccccc3[n+]2C)C(C)(C)c2ccccc21	Fa2T (DNA, G4) ACAGGGGTGTGGGGACAGGGGTGTGGGG	Met
CN1C(=Cc2cc[n+](C)c3ccccc23)Sc2ccccc21	Fa2T (DNA, G4) ACAGGGGTGTGGGGACAGGGGTGTGGGG	Met
c1cc[n+]2cc3c(cc2c1)c1cc2cccc[n+]2cc1c1c2c[n+]4ccccc4cc2c2cc4cccc[n+]4cc2c31	Fa2T (DNA, G4) ACAGGGGTGTGGGGACAGGGGTGTGGGG	Not met
C[n+]1ccc(-c2c3nc(c(-c4cc[n+](C)cc4)c4ccc([nH]4)c(-c4cc[n+](C)cc4)c4nc(c(-c5cc[n+](C)cc5)c5ccc2[nH]5)C=C4)C=C3)cc1	Fa2T (DNA, G4) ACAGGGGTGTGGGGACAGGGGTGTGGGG	Not met
CN1C(=CC=C(C=Cc2ccc3ccccc3[n+]2C)C=Cc2ccc3ccccc3[n+]2C)C=Cc2ccccc21	Fa2T (DNA, G4) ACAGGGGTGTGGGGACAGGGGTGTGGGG	Not met
C[n+]1cc(NC(=O)c2cccc(C(=O)Nc3cc4ccccc4[n+](C)c3)n2)cc2ccccc21	Fa2T (DNA, G4) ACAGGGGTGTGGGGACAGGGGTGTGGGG	Not met
